Quick reference: solubility at 72 h of the listed items.
assay: Solubility of compound in pH 7 buffer incubated for 3 days by LC-MS/MS analysis; assay type: physicochemical; details: time 3 day
measurement name: solubility at 72 h (µM)

COCCOCCc1nn(C)c2c1CSCc1cc(n(C)n1)CCc1cc(c3ccc(F)cc3c1)OCCCc1c(C(=O)O)n(C)c3c-2c(Cl)ccc13 460
COCCOCCn1c(C(=O)O)c2c3ccc(Cl)c(c31)-c1c(cnn1C)CSCc1cc(n(C)n1)CCc1cc(c3ccc(F)cc3c1)OCCC2 520
Cn1nc2cc1CCc1cc(c3ccc(F)cc3c1)OCCCc1c(C(=O)O)n(CCN3CCOCC3)c3c(c(Cl)ccc13)-c1c(cnn1C)CSC2 550
Cc1nn(C)c2c1CSCc1cc(n(C)n1)CCc1cc(c3ccccc3c1)OCCCc1c(C(=O)[O-])n(C)c3c-2c(Cl)ccc13.[Na+] 210

* * *

target: Cytochrome P450 2C8 (Homo sapiens, UniProt P10632); experiment: Inhibition of recombinant human CYP2C8 by fluorescence microplate reader assay
Sequence (P10632 whole entry): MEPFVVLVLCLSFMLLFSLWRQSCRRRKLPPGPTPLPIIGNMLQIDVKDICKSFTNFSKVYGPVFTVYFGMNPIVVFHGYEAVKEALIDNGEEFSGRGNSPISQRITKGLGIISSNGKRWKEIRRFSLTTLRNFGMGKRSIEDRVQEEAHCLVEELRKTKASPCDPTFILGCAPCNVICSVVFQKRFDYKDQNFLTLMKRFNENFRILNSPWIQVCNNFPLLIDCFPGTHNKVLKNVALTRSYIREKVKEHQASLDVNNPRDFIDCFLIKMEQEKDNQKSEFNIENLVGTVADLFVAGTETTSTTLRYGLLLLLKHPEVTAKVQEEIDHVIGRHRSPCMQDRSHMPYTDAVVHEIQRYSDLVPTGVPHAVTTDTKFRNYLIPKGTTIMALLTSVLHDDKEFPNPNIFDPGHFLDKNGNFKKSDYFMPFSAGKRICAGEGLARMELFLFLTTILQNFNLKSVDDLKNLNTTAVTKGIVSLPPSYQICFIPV
pIC50: −log10 of the molar value.
measurement name: pIC50

Cn1nc2cc1CCc1cc(c3ccc(F)cc3c1)OCCCc1c(C(=O)O)n(CCN3CCOCC3)c3c(c(Cl)ccc13)-c1c(cnn1C)CSC2 5.25
COCCOCc1nn(C)c2c1CSCc1cc(n(C)n1)CCc1cc(c3ccc(F)cc3c1)OCCCc1c(C(=O)O)n(C)c3c-2c(Cl)ccc13 5.02

* * *

target: Cytochrome P450 2C19 (Homo sapiens, UniProt P33261); assay: Inhibition of recombinant human CYP2C19 by fluorescence microplate reader assay
Sequence (P33261 whole entry): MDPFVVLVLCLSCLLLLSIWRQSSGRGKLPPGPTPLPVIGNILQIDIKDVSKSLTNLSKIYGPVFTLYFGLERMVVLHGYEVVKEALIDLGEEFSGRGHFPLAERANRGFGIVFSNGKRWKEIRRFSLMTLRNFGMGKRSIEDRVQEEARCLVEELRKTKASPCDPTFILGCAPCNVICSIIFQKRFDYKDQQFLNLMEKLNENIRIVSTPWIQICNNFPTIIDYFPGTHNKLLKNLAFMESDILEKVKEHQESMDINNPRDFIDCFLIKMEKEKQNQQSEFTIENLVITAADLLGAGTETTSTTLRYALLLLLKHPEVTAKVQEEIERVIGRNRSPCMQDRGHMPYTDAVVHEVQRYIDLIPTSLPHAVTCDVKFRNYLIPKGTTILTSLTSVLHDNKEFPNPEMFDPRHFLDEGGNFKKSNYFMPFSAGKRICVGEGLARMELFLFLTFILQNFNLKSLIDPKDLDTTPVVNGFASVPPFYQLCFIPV
pIC50: −log10 of the molar value.
Quick reference: pIC50 of the listed items.
measurement name: pIC50

COCCOCc1nn(C)c2c1CSCc1cc(n(C)n1)CCc1cc(c3ccc(F)cc3c1)OCCCc1c(C(=O)O)n(C)c3c-2c(Cl)ccc13 < 4.70
Cn1nc2cc1CCc1cc(c3ccc(F)cc3c1)OCCCc1c(C(=O)O)n(CCN3CCOCC3)c3c(c(Cl)ccc13)-c1c(cnn1C)CSC2 < 4.70

* * *

experiment: Solubility of compound in pH 7 buffer incubated for 3 days by LC-MS/MS analysis; assay type: physicochemical; conditions: time 3 day
measurement name: solubility at 72 h

COCCn1c(C(=O)O)c2c3ccc(Cl)c(c31)-c1c(cnn1C)CSCc1cc(n(C)n1)CCc1cc(c3ccc(F)cc3c1)OCCC2 10.4 µM
Cn1nc2cc1CSc1cc(c3ccccc3c1)OCCCc1c(C(=O)O)n(C)c3c(c(Cl)ccc13)-c1c(cnn1C)CSC2 < 0.49 µM
COCCOCc1nn(C)c2c1CSCc1cc(n(C)n1)CCc1cc(c3ccccc3c1)OCCCc1c(C(=O)O)n(C)c3c-2c(Cl)ccc13 590 µM
COCCOCc1nn(C)c2c1CSCc1cc(n(C)n1)CCc1cc(c3ccc(F)cc3c1)OCCCc1c(C(=O)O)n(C)c3c-2c(Cl)ccc13 580 µM
Cc1nn(C)c2c1CSCc1cc(n(C)n1)CSc1cc(c3ccccc3c1)OCCCc1c(C(=O)O)n(C)c3c-2c(Cl)ccc13 9.7 µM
Cc1nn(C)c2c1CSCc1cc(n(C)n1)CCc1cc(c3ccc(F)cc3c1)OCCCc1c(C(=O)[O-])n(C)c3c-2c(Cl)ccc13.[Na+] 550 µM

The reported numbers originate from ChEMBL document CHEMBL5360612.
